# study-target: cIAP2-BIR2 (Homo sapiens (Human), UniProt Q13489)
# Sequence (Q13489 158-242): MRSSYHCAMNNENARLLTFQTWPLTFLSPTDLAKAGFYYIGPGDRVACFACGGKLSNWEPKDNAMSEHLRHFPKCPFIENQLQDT
# assay-notes: BIR binding assay (FRET competition), cIAP2 BIR2
readout-label: IC50

Example molecules with recorded IC50:
[
  {
    "molecule": "C[C@@H]1CN(CC(=O)N2CC(C)(C)c3ncc(Cc4ccccc4)cc32)[C@@H](CN2CCO[C@H](COc3cccc(OC[C@@H]4CN(C[C@H]5CN[C@H](C)CN5CC(=O)N5CC(C)(C)c6ncc(Cc7ccccc7)cc65)CCO4)c3)C2)CN1 [Compound 150]",
    "readout-label": "IC50",
    "reported-measurement": "10 to 51.3 µM"
  },
  {
    "molecule": "C[C@@H]1CN(CC(=O)N2CC(C)(C)c3[nH]c(=O)c(Cc4ccc(F)cc4)cc32)[C@@H](CN2CCO[C@H](COCC#CC#CCOC[C@@H]3CN(C[C@H]4CN[C@H](C)CN4CC(=O)N4CC(C)(C)c5[nH]c(=O)c(Cc6ccc(F)cc6)cc54)CCO3)C2)CN1 [Example 63]",
    "readout-label": "IC50",
    "reported-measurement": "3.16 to 10 µM"
  },
  {
    "molecule": "C[C@@H]1CN(CC(=O)N2CC(C)(C)c3[nH]c(=O)c(Cc4ccc(F)cc4F)cc32)[C@@H](CN2CCO[C@H](C(=O)NCc3ccc(CNC(=O)[C@@H]4CN(C[C@H]5CN[C@H](C)CN5CC(=O)N5CC(C)(C)c6[nH]c(=O)c(Cc7ccc(F)cc7F)cc65)CCO4)cc3)C2)CN1 [Compound 177]",
    "readout-label": "IC50",
    "reported-measurement": "1 to 3.16 µM"
  }
]

Consider the molecule C[C@@H]1CN(CC(=O)N2CC(C)(C)c3[nH]c(=O)c(Cc4ccc(F)cc4)cc32)[C@@H](CN2CCC(CC(=O)N(C)Cc3ccc(CN(C)C(=O)CC4CCN(C[C@H]5CN[C@H](C)CN5CC(=O)N5CC(C)(C)c6[nH]c(=O)c(Cc7ccc(F)cc7)cc65)CC4)cc3)CC2)CN1 [Example 106] and give its recorded IC50.
1 to 3.16 µM

Consider the molecule C[C@@H]1CN(CC(=O)N2CC(C)(C)c3[nH]c(=O)c(Cc4ccc(F)cc4)cc32)[C@@H](CN2CCO[C@H](C(=O)NCCCN3CCN(CCCNC(=O)[C@@H]4CN(C[C@H]5CN[C@H](C)CN5CC(=O)N5CC(C)(C)c6[nH]c(=O)c(Cc7ccc(F)cc7)cc65)CCO4)CC3)C2)CN1 [Example 123] and give its recorded IC50.
3.16 to 10 µM

For the molecule C[C@@H]1CN(CC(=O)N2CC(C)(C)c3[nH]c(=O)c(Cc4ccc(F)cc4)cc32)[C@@H](CN2CCN(CCCCCCCCCCCCN3CCN(C[C@H]4CN[C@H](C)CN4CC(=O)N4CC(C)(C)c5[nH]c(=O)c(Cc6ccc(F)cc6)cc54)[C@H](C)C3)C[C@H]2C)CN1 [Example 26] , give its measured IC50 value.
1 to 3.16 µM

Kindly indicate its recorded IC50. Item: C[C@@H]1CN(CC(=O)N2CC(C)(C)c3[nH]c(=O)c(Cc4ccc(F)cc4)cc32)[C@@H](CN2CCC[C@@H](NC(=O)CCCCCCC(=O)N[C@@H]3CCCN(C[C@H]4CN[C@H](C)CN4CC(=O)N4CC(C)(C)c5[nH]c(=O)c(Cc6ccc(F)cc6)cc54)C3)C2)CN1 [Example 44]
10 to 51.3 µM
